Where do these numbers come from? They come from patent US6358885B1.

- Tested on: giant foxtail
- Method summary: Test B preemergence/postemergence greenhouse plant response rating 0 to 10
- Assay type: in vivo, Setaria faberii
- Protocol conditions: POSTEMERGENCE, Rate 50 g/ha; 0 to 10 scale
Parameter: Plant response rating, Giant foxtail

- Oc1cc(-c2nn3c(c2Br)CCCC3)c(F)cc1Cl: 4
- CC(C#N)Oc1cc(-c2nn3c(c2Cl)CCCC3)c(F)cc1Cl (centres unmarked): 4
- CCC(=O)Oc1cc(-c2nn3c(c2Cl)CCCC3)c(F)cc1Cl: 4
- CC(C)OC(=O)COc1cc(-c2nn3c(c2Br)CCCC3)c(F)cc1Cl: 3
- COCCOc1cc(-c2nn3c(c2Cl)CCCC3)c(Cl)cc1Cl: 4

----------
Property: Plant response rating (0 to 10 scale), Crabgrass; scope: individual compounds
- Tested on: crabgrass
- Method summary: Test B preemergence/postemergence greenhouse plant response rating 0 to 10
- Format: in vivo, Digitaria spp.
- Protocol conditions: PREEMERGENCE, Rate 200 g/ha
Parameter: Plant response rating (0 to 10 scale), Crabgrass

- COCOc1cc(-c2nn3c(c2Cl)CCCC3)c(F)cc1Cl: 9
- CC(C)OC(=O)COc1cc(-c2nn3c(c2Br)CCCC3)c(F)cc1Cl: 0
- C=CCOc1cc(-c2nn3c(c2Cl)CCCC3)c(Cl)cc1Cl: 5
- O=C1COc2cc(F)c(-c3nn4c(c3Br)CCCC4)cc2N1: 3

----------
- System: barnyardgrass
- Method summary: Test E paddy water application plant response rating 0 to 100
- Type: in vivo, Echinochloa crus-galli
- Protocol conditions: Rate 64 g/ha; Flood; 0 to 100 scale; approx. 21 days
Property: Barnyardgrass 3 plant response rating; scope: individual molecules
Parameter: Barnyardgrass 3 plant response rating

• C#CC(C)N1C(=O)COc2cc(F)c(-c3nn4c(c3Cl)CCCC4)cc21 (stereo not shown) = 35
• C=CCN1C(=O)COc2cc(F)c(-c3nn4c(c3Br)CCCC4)cc21 = 45
• Fc1cc(Cl)c(OCCCl)cc1-c1nn2c(c1Cl)CCCC2 = 70
• C=C(Cl)COc1cc(-c2nn3c(c2Cl)CCCC3)c(F)cc1Cl = 40

----------
- Tested on: chickweed
- Method summary: Test C preemergence/postemergence greenhouse plant response rating 0 to 100
- Format: in vivo, Stellaria media
- Protocol conditions: POSTEMERGENCE, 250 g/ha, 0 to 100 scale
Property: Plant response rating, Chickweed; scope: individual molecules
Parameter: Plant response rating, Chickweed

- Fc1cc(Cl)c(OCCCl)cc1-c1nn2c(c1Cl)CCCC2 [Compound 49]: 80
- C#CCOc1cc(-c2nn3c(c2Br)CCCC3)c(F)cc1Cl [Compound 26]: 100
- CCC(C)Oc1cc(-c2nn3c(c2Cl)CCCC3)c(F)cc1Cl (stereo not drawn) [Compound 48]: 80
- C#CC(C)N1C(=O)COc2cc(F)c(-c3nn4c(c3Cl)CCCC4)cc21 (stereo not drawn) [Compound 50]: 100
- CC(C)OC(=O)c1cc(-c2nn3c(c2Cl)CCCC3)c(F)cc1Cl [Compound 44]: 100
- COC(=O)c1cc(-c2nn3c(c2Cl)CCCC3)c(F)cc1Cl [Compound 43]: 100

----------
- Tested on: blackgrass
- Method summary: Test C preemergence/postemergence greenhouse plant response rating 0 to 100
- Type: in vivo, Alopecurus myosuroides
- Protocol conditions: Rate 16 g/ha; POSTEMERGENCE
Property: Plant response rating (0 to 100), Blackgrass; scope: individual molecules
Parameter: Plant response rating (0 to 100), Blackgrass

- CC(C)Oc1cc(-c2nn3c(c2Br)CCCC3)c(F)cc1Cl: 20
- CC(C)N1C(=O)COc2cc(F)c(-c3nn4c(c3Cl)CCCC4)cc21: 30
- C=C(Cl)COc1cc(-c2nn3c(c2Cl)CCCC3)c(F)cc1Cl: 20
- C#CC(C)N1C(=O)COc2cc(F)c(-c3nn4c(c3Cl)CCCC4)cc21 (stereo not drawn): 50
- C#CC(C)Oc1cc(-c2nn3c(c2Cl)CCCC3)c(F)cc1Cl (stereo not drawn): 30
- CCOC(=O)COc1cc(-c2nn3c(c2Cl)CCCC3)c(F)cc1Cl: 10

----------
Property: Plant response rating, Rape; scope: individual compounds
- System: rape
- Method summary: Test B preemergence/postemergence greenhouse plant response rating 0 to 10
- Type: in vivo, Brassica napus
- Protocol conditions: POSTEMERGENCE, Rate 50 g/ha; 0 to 10 scale
Parameter: Plant response rating, Rape

* CC(C#N)Oc1cc(-c2nn3c(c2Cl)CCCC3)c(F)cc1Cl (stereo not drawn) | 10
* CCCOc1cc(-c2nn3c(c2Cl)CCCC3)c(F)cc1Cl | 6
* CC(C)Oc1cc(-c2nn3c(c2Cl)CCCC3)c(Cl)cc1Cl | 7
* Fc1cc(Cl)c(OC2CCCC2)cc1-c1nn2c(c1Cl)CCCC2 | 5
* C=C(Cl)COc1cc(-c2nn3c(c2Cl)CCCC3)c(F)cc1Cl | 4
* CCCCN1C(=O)COc2cc(F)c(-c3nn4c(c3Cl)CCCC4)cc21 | 10
* Fc1cc(Cl)c(OCCCl)cc1-c1nn2c(c1Cl)CCCC2 | 7
* CC(C)OC(=O)COc1cc(-c2nn3c(c2Br)CCCC3)c(F)cc1Cl | 7
* CC(=O)c1cc(-c2nn3c(c2Cl)CCCC3)c(F)cc1Cl | 3

----------
- System: blackgrass
- Method summary: Test B preemergence/postemergence greenhouse plant response rating 0 to 10
- Type: in vivo, Alopecurus myosuroides
- Protocol conditions: POSTEMERGENCE, Rate 50 g/ha; 0 to 10 scale
Property: Plant response rating, Blackgrass; scope: individual compounds
Parameter: Plant response rating, Blackgrass

- C=CCN1C(=O)COc2cc(F)c(-c3nn4c(c3Br)CCCC4)cc21: 2
- CCCN1C(=O)COc2cc(F)c(-c3nn4c(c3Br)CCCC4)cc21: 4
- Fc1cc(Cl)c(-c2ccccc2)cc1-c1nn2c(c1Cl)CCCC2: 2
- C#CC(C)N1C(=O)COc2cc(F)c(-c3nn4c(c3Cl)CCCC4)cc21 (centres unmarked): 6
- COCCOc1cc(-c2nn3c(c2Cl)CCCC3)c(Cl)cc1Cl: 5

----------
Property: Plant response rating Downy Brome; scope: individual compounds
- Tested on: downy brome
- Method summary: Test C preemergence/postemergence greenhouse plant response rating 0 to 100
- Type: in vivo, Bromus tectorum
- Protocol conditions: POSTEMERGENCE, 250 g/ha, 0 to 100 scale
Parameter: Plant response rating Downy Brome

- C#CCOc1cc(-c2nn3c(c2Br)CCCC3)c(F)cc1Cl: 70
- COC(=O)c1cc(-c2nn3c(c2Cl)CCCC3)c(F)cc1Cl: 80
- COc1cc(-c2nn3c(c2Cl)CCCC3)c(F)cc1Cl: 95
- C#CC(C)Oc1cc(-c2nn3c(c2Br)CCCC3)c(F)cc1Cl (centres unmarked): 80
- CCC(C)Oc1cc(-c2nn3c(c2Cl)CCCC3)c(F)cc1Cl (centres unmarked): 70

----------
Property: Plant response rating (0 to 10 scale), Morningglory; scope: individual compounds
- Tested on: morningglory
- Method summary: Test B preemergence/postemergence greenhouse plant response rating 0 to 10
- Type: in vivo, Ipomoea hederacea
- Protocol conditions: PREEMERGENCE, Rate 200 g/ha
- Excerpt: Seeds of barley (Hordeum vulgare), barnyardgrass (Echinochloa crus-galli), bedstraw (Galium aparine), blackgrass (Alopecurus myosuroides), […] […] Treated plants and controls were maintained in a greenhouse for twelve to sixteen days, after which all species were compared to controls and visually evaluated. […]
Parameter: Plant response rating (0 to 10 scale), Morningglory

* CC(C)(C)C(=O)COc1cc(-c2nn3c(c2Cl)CCCC3)c(Cl)cc1Cl | 0
* C=CCOc1cc(-c2nn3c(c2Cl)CCCC3)c(Cl)cc1Cl | 0
* CCOC(=O)COc1cc(-c2nn3c(c2Cl)CCCC3)c(Cl)cc1Cl | 0
* COCOc1cc(-c2nn3c(c2Br)CCCC3)c(F)cc1Cl | 2
* CC(C)OC(=O)COc1cc(-c2nn3c(c2Br)CCCC3)c(F)cc1Cl | 8

----------
- System: soybean
- Method summary: Test B preemergence/postemergence greenhouse plant response rating 0 to 10
- Assay type: in vivo, Glycine max
- Protocol conditions: Rate 200 g/ha, PREEMERGENCE; 0 to 10 scale
- From the text: Seeds of barley (Hordeum vulgare), barnyardgrass (Echinochloa crus-galli), bedstraw (Galium aparine), blackgrass (Alopecurus myosuroides), […] […] Treated plants and controls were maintained in a greenhouse for twelve to sixteen days, after which all species were compared to controls and visually evaluated. […]
Parameter: Plant response rating, Soybean

• C#CCOc1cc(-c2nn3c(c2Br)CCCC3)c(F)cc1Cl = 3
• Fc1cc(Cl)ccc1-c1nn2c(c1Br)CCCC2 = 0
• CCCOc1cc(-c2nn3c(c2Cl)CCCC3)c(F)cc1Cl = 7
• O=C1COc2cc(F)c(-c3nn4c(c3Cl)CCCC4)cc2N1 = 8
• CC(C)Oc1cc(-c2nn3c(c2Cl)CCCC3)c(F)cc1Cl = 2
